test system: adipose cells of rats; test: Evaluation of the sugar transportation activity (2-[14C(U)]-deoxy-D-glucose incorporation); assay type: cell-based, Wistar rats; conditions: concentration with reinforcing effect of 50% of that of insulin (100 nM) = 100%; rat adipose cells, 30 min pre-culture at 37° C., 5 min uptake
# strict inequality: A: sugar transportation activity (EC50) < 3 µg/mL yields true (1), everything else yields false (0)

* CC(=O)N1[C@@H]2CCCC[C@H]2NC2=C(C(=O)NC2)[C@H]1c1cccc(F)c1C [Compound 107] | false (0)
* COc1ccccc1[C@@H]1C2=C(CNC2=O)N[C@@H]2CCCC[C@H]2N1C(=O)CO [Compound 8] | true (1)
* CCOCC(=O)N1[C@@H]2CCCC[C@H]2NC2=C(C(=O)NC2)[C@H]1c1ccc(F)cc1OC [Compound 71] | false (0)
* CCC(=O)N1[C@@H]2CCCC[C@H]2NC2=C(C(=O)NC2)[C@H]1c1ccc(F)cc1OC [Compound 70] | true (1)
* COc1ccccc1CCC(=O)N1[C@@H]2CCCC[C@H]2NC2=C(C(=O)NC2)[C@H]1c1ccccc1OC [Compound 26] | false (0)
* CCOCC(=O)N1[C@@H]2CCCC[C@H]2NC2=C(C(=O)NC2)[C@H]1c1ccccc1OCc1ccccc1 [Compound 63] | false (0)
* COCC(=O)N1[C@@H]2CCCC[C@H]2NC2=C(C(=O)NC2)[C@H]1c1ccccc1OC(F)(F)F [Compound 69] | true (1)
* CC(=O)N1[C@@H]2CCCC[C@H]2NC2=C(C(=O)NC2)[C@H]1c1ccccc1OC(C)C [Compound 57] | false (0)
* COCCC(=O)N1[C@@H]2CCCC[C@H]2NC2=C(C(=O)NC2)[C@H]1c1ccccc1OC [Compound 24] | false (0)
* COc1ccc(F)cc1[C@@H]1C2=C(CNC2=O)N[C@@H]2CCCC[C@H]2N1C(C)=O [Compound 76] | false (0)
* CC=CC(=O)N1[C@@H]2CCCC[C@H]2NC2=C(C(=O)NC2)[C@H]1c1ccccc1OC [Compound 16] | true (1)
* COc1ccccc1[C@@H]1C2=C(CNC2=O)N[C@@H]2CCCC[C@H]2N1C(=O)CCSC [Compound 28] | true (1)
* COC(=O)N1[C@@H]2CCCC[C@H]2NC2=C(C(=O)NC2)[C@H]1c1ccccc1Cl [Compound 122] | true (1)
